# Test system: primary cortico-hippocampal neuron cultures
# testProtocol: lactate dehydrogenase (LDH) activity assay in parallel neuron cultures
# statedConditions: drug at E-5M
Counter-ions that a name gives are not always drawn.

compound: CC(CCc1ccccc1)NCC(O)c1ccc(O)c(C(N)=O)c1 (centres unmarked) [Labetalol Hydrochloride]
measuredTarget: primary cortico-hippocampal neuron cultures
unitLabel: %
LDH at E-5M % of change: −5.0
//
compound: COC(=O)[C@@H]1[C@H]2C[C@H]3c4[nH]c5ccccc5c4CCN3C[C@@H]2CC[C@@H]1O [Yohimbine Hydrochloride]
measuredTarget: primary cortico-hippocampal neuron cultures
unitLabel: %
LDH at E-5M % of change: 6.0
//
compound: CCC[C@H](N[C@@H](C)C(=O)N1[C@H](C(=O)O)C[C@@H]2CCCC[C@@H]21)C(=O)OCC
measuredTarget: primary cortico-hippocampal neuron cultures
unitLabel: %
LDH at E-5M % of change: −5.6
//
compound: COc1cc2nc(N3CCN(C(=O)c4ccco4)CC3)nc(N)c2cc1OC [Prazosin Hydrochloride]
measuredTarget: primary cortico-hippocampal neuron cultures
unitLabel: %
LDH at E-5M % of change: 5.0
//
compound: CCCCc1oc2ccccc2c1C(=O)c1cc(I)c(OCCN(CC)CC)c(I)c1 [Amiodarone Hydrochloride]
measuredTarget: primary cortico-hippocampal neuron cultures
unitLabel: %
LDH at E-5M % of change: 1.9
//
compound: NS(=O)(=O)c1cc2c(cc1C(F)(F)F)NC(Cc1ccccc1)NS2(=O)=O (centres unmarked) [Bendrofumethiazide]
measuredTarget: primary cortico-hippocampal neuron cultures
unitLabel: %
LDH at E-5M % of change: 5.0
//
compound: CC(COc1ccccc1)NC(C)C(O)c1ccc(O)cc1 (centres unmarked) [Isoxsuprine Hydrochloride]
measuredTarget: primary cortico-hippocampal neuron cultures
unitLabel: %
LDH at E-5M % of change: 5.0
//
compound: COc1ccc(Cc2nccc3cc(OC)c(OC)cc23)cc1OC [Papaverine Hydrochloride]
measuredTarget: primary cortico-hippocampal neuron cultures
unitLabel: %
LDH at E-5M % of change: −8.9
